# target-or-test-system: T1, estrogen receptor (ER) α as a carboxy-terminal fusion to the Gal4-activation domain (yeast, UniProt P03372 1-595, limits assumed); note: test concentration or dose not given here
# T1 sequence (looked up): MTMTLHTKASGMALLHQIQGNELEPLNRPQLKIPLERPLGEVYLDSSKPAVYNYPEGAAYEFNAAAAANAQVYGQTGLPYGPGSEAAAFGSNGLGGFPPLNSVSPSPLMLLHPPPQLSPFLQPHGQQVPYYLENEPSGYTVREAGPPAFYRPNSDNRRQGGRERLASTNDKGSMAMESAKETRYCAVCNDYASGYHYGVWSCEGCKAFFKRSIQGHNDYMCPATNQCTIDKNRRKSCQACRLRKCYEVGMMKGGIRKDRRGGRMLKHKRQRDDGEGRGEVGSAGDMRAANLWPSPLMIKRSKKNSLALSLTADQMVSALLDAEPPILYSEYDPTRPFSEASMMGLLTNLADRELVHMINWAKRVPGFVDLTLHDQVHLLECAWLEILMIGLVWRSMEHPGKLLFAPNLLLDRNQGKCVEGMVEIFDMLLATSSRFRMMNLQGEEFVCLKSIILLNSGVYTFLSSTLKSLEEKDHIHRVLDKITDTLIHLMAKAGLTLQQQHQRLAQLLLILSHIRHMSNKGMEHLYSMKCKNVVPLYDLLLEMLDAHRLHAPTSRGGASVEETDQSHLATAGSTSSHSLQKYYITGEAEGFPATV
# test-summary: cell-based or functional assay
measured-property: Fold Induction (ligand-induced β-galactosidase, two-hybrid) (fold)
Kindly answer with a numeric value in fold, unit omitted.

binder	observed-result
B6C4 (peptide) MKLLSSIEQACDICRLKKLKCSKEKPKCAKCLKNNWECRYSPKTKRSPLTRAHLTEVESRLERLEQLFLLIFPREDLDMILKMDSLQDIKALLTGLFVQDNVNKDAVTDRLASVETDMPLTLRQHRISATSSSEESSNKGQRQLTVSEFDRSSILVSLLSMVETLDLQPS	2.5
B1G8 (peptide) MKLLSSIEQACDICRLKKLKCSKEKPKCAKCLKNNWECRYSPKTKRSPLTRAHLTEVESRLERLEQLFLLIFPREDLDMILKMDSLQDIKALLTGLFVQDNVNKDAVTDRLASVETDMPLTLRQHRISATSSSEESSNKGQRQLTVSEFTSVSRLVTLLLQ	6

With those in mind, consider the next binder.
Prompt: Name the reported Fold Induction (ligand-induced β-galactosidase, two-hybrid) value associated with the binder B6F3 (peptide) MKLLSSIEQACDICRLKKLKCSKEKPKCAKCLKNNWECRYSPKTKRSPLTRAHLTEVESRLERLEQLFLLIFPREDLDMILKMDSLQDIKALLTGLFVQDNVNKDAVTDRLASVETDMPLTLRQHRISATSSSEESSNKGQRQLTVSEFFRATHLLRLLRTDSALDLQPS
Completion: 3
